Entry source: ChEMBL document CHEMBL1135421

TESTED TARGET: Alpha-2C adrenergic receptor (Homo sapiens) (UniProt P18825)
Sequence (P18825 whole entry): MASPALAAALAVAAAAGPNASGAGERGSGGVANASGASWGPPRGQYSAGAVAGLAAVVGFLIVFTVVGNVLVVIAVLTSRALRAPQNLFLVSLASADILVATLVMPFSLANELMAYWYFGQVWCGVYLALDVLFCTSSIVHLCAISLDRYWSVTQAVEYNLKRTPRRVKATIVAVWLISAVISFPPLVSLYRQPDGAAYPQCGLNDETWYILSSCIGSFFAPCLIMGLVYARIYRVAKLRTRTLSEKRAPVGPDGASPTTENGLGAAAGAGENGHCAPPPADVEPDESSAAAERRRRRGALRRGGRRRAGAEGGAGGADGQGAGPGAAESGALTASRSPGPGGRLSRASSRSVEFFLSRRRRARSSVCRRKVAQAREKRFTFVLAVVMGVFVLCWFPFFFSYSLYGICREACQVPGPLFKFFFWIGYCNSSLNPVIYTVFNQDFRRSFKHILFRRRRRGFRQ
EXPERIMENTAL DETAILS: Efficacy as percentage of the maximal effect observed for nonselective agonist UK-14304 in CHO cells expressing human Alpha-2C adrenergic receptor
Assay type: functional, cell-based
QUANTITY KIND: Max (%)
Your answer should be a plain number; it is taken to be in %.

Query :: Annotate the molecule Cc1ccc(S(C)(=O)=O)c(NCC2=NCCN2)c1 with its measured Max.
Result :: 76

Query :: Annotate the molecule C[S+]([O-])c1ccccc1NCC1=NCCN1 (centres undefined) with its measured Max.
Result :: 74

Query :: Annotate the molecule CSc1ccc(C(F)(F)F)cc1NCC1=NCCN1 with its measured Max.
Result :: 45

Query :: Annotate the molecule CS(=O)(=O)c1ccc(C(F)(F)F)cc1NCC1=NCCN1 with its measured Max.
Result :: 25

Query :: Annotate the molecule CSc1ccc(C)cc1NCC1=NCCN1 with its measured Max.
Result :: 81

Query :: Annotate the molecule CS(=O)(=O)c1c(F)cccc1NCC1=NCCN1 with its measured Max.
Result :: 93

Query :: Annotate the molecule CSc1cc(F)ccc1NCC1=NCCN1 with its measured Max.
Result :: 82

Query :: Annotate the molecule COc1ccc(S(C)(=O)=O)c(NCC2=NCCN2)c1 with its measured Max.
Result :: 49

Query :: Annotate the molecule CSc1ccccc1NCC1=NCCN1 with its measured Max.
Result :: 82

Query :: Annotate the molecule CSc1ccc(Cl)cc1NCC1=NCCN1 with its measured Max.
Result :: 92

Query :: Annotate the molecule CC(C)S(=O)(=O)c1ccccc1NCC1=NCCN1 with its measured Max.
Result :: 50

Query :: Annotate the molecule CCS(=O)(=O)c1ccccc1NCC1=NCCN1 with its measured Max.
Result :: 64

Query :: Annotate the molecule CS(=O)(=O)c1ccc(F)cc1NCC1=NCCN1 with its measured Max.
Result :: 91

Query :: Annotate the molecule CSc1c(F)cccc1NCC1=NCCN1 with its measured Max.
Result :: 104

Query :: Annotate the molecule CS(=O)(=O)c1cc(Cl)ccc1NCC1=NCCN1 with its measured Max.
Result :: 54

Query :: Annotate the molecule CCCS(=O)(=O)c1ccccc1NCC1=NCCN1 with its measured Max.
Result :: 56

Query :: Annotate the molecule CSc1ccc(F)cc1NCC1=NCCN1 with its measured Max.
Result :: 97

Query :: Annotate the molecule CS(=O)(=O)c1cccc(F)c1NCC1=NCCN1 with its measured Max.
Result :: 93

Query :: Annotate the molecule CC(C)Sc1ccccc1NCC1=NCCN1 with its measured Max.
Result :: 91

---

TESTED TARGET: UniProt P35368
Sequence (P35368 whole entry): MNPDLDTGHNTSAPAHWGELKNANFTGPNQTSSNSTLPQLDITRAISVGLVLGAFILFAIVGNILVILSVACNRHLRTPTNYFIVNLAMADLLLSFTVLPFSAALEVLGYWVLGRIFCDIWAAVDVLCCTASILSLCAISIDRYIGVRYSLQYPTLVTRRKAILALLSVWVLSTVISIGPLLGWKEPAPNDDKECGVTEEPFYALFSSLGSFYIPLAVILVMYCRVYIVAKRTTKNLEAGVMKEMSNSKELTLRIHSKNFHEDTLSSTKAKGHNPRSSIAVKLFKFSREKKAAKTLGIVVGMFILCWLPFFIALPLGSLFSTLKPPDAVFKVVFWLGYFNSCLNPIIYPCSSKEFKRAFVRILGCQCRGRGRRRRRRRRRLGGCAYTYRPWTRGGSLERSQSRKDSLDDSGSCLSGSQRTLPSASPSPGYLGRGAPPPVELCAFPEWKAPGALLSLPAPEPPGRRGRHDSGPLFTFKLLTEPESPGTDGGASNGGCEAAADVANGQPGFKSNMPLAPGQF
EXPERIMENTAL DETAILS: Agonist potency at Alpha-1B adrenergic receptor expressed in rat-1 fibroblasts
Assay type: functional
Give measured pEC50 for each item. Keep answers brief.
Interpret pEC50 as the negative base-10 log of the concentration measured in mol/L.

Query :: Provide pEC50, system UniProt P35368, entry CS(=O)(=O)c1ccc(Cl)cc1NCC1=NCCN1
Result :: 7.21

Query :: Provide pEC50, system UniProt P35368, entry Cc1ccc(S(C)(=O)=O)c(NCC2=NCCN2)c1
Result :: 6.85

Query :: Provide pEC50, system UniProt P35368, entry CSc1c(F)cccc1NCC1=NCCN1
Result :: 7.07

Query :: Provide pEC50, system UniProt P35368, entry COc1ccc(SC)c(NCC2=NCCN2)c1
Result :: 8.44

Query :: Provide pEC50, system UniProt P35368, entry CSc1ccc(Cl)cc1NCC1=NCCN1
Result :: 9.30

Query :: Provide pEC50, system UniProt P35368, entry CCSc1ccccc1NCC1=NCCN1
Result :: 7.86

Query :: Provide pEC50, system UniProt P35368, entry CSc1cc(F)ccc1NCC1=NCCN1
Result :: 8.22

Query :: Provide pEC50, system UniProt P35368, entry CSc1ccc(F)cc1NCC1=NCCN1
Result :: 8.73

Query :: Provide pEC50, system UniProt P35368, entry CSc1ccc(C(F)(F)F)cc1NCC1=NCCN1
Result :: 8.22

Query :: Provide pEC50, system UniProt P35368, entry CC(C)Sc1ccccc1NCC1=NCCN1
Result :: 7.21

Query :: Provide pEC50, system UniProt P35368, entry CSc1ccc(C)cc1NCC1=NCCN1
Result :: 9.38

---

Give measured EC50 for each item. Keep answers brief.
TESTED TARGET: Alpha-1D adrenergic receptor (Homo sapiens, UniProt P25100)
Sequence (P25100 whole entry): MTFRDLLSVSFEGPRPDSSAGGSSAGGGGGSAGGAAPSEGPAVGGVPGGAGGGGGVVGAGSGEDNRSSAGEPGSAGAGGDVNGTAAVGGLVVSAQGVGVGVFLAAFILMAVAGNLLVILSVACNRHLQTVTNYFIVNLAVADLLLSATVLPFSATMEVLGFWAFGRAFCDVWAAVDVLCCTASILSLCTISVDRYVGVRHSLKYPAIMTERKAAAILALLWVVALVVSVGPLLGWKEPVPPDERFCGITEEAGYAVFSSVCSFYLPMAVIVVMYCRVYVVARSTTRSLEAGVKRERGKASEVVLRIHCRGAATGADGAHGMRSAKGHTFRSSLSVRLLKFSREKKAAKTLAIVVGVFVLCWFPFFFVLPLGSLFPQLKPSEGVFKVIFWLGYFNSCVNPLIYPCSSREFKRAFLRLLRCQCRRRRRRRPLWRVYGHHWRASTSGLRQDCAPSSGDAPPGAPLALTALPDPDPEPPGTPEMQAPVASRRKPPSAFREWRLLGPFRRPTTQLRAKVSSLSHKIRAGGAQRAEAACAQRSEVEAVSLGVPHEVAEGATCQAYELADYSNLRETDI
EXPERIMENTAL DETAILS: Agonist potency at Alpha-1D adrenergic receptor assayed in rat-1 fibroblasts expressing human Alpha-1D adrenergic receptor
Assay type: functional

Query :: Annotate the compound COc1ccc(S(C)(=O)=O)c(NCC2=NCCN2)c1 with its measured EC50.
Result :: > 100000 nM

Query :: Annotate the compound CC(C)S(=O)(=O)c1ccccc1NCC1=NCCN1 with its measured EC50.
Result :: > 5010 nM

Query :: Annotate the compound CSc1ccc(C(F)(F)F)cc1NCC1=NCCN1 with its measured EC50.
Result :: 43.7 nM

Query :: Annotate the compound CSc1ccc(Cl)cc1NCC1=NCCN1 with its measured EC50.
Result :: 2.69 nM

Query :: Annotate the compound CS(=O)(=O)c1c(F)cccc1NCC1=NCCN1 with its measured EC50.
Result :: > 100000 nM

Query :: Annotate the compound CSc1c(F)cccc1NCC1=NCCN1 with its measured EC50.
Result :: 33.9 nM

Query :: Annotate the compound CS(=O)(=O)Nc1ccc(F)c([C@@H](O)CN)c1 with its measured EC50.
Result :: > 100000 nM

Query :: Annotate the compound CS(=O)(=O)c1ccc(Cl)cc1NCC1=NCCN1 with its measured EC50.
Result :: > 100000 nM

---

TESTED TARGET: UniProt:P08913
Sequence (P08913 whole entry): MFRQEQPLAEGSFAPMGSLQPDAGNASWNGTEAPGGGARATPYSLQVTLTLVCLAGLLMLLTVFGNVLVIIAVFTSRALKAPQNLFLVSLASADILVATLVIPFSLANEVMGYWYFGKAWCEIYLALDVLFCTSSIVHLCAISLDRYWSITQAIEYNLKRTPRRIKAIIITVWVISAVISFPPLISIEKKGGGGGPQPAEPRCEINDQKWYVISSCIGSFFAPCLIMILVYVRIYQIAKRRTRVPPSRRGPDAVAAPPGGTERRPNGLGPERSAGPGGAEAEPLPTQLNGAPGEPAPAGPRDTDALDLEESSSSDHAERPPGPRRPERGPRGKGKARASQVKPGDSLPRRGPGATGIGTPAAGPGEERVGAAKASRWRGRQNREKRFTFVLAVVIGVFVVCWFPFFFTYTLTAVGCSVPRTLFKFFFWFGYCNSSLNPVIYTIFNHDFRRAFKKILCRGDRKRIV
EXPERIMENTAL DETAILS: Affinity to human Alpha-2A adrenergic receptor determined by radioligand binding techniques from chinese hamster ovary (CHO) cells
Format: cell-based
Give measured pKi for each item. Keep answers brief.
Interpret pKi as the negative base-10 log of the concentration measured in mol/L.

Query :: Provide pKi, system UniProt:P08913, entry CCSc1ccccc1NCC1=NCCN1
Result :: 7.09

Query :: Provide pKi, system UniProt:P08913, entry CSc1ccc(C(F)(F)F)cc1NCC1=NCCN1
Result :: 6.70

Query :: Provide pKi, system UniProt:P08913, entry CSc1c(F)cccc1NCC1=NCCN1
Result :: 6.78

Query :: Provide pKi, system UniProt:P08913, entry CSc1ccc(Cl)cc1NCC1=NCCN1
Result :: 7.38

---

TESTED TARGET: Alpha-1A adrenergic receptor (Homo sapiens) (UniProt P35348)
Sequence (whole entry): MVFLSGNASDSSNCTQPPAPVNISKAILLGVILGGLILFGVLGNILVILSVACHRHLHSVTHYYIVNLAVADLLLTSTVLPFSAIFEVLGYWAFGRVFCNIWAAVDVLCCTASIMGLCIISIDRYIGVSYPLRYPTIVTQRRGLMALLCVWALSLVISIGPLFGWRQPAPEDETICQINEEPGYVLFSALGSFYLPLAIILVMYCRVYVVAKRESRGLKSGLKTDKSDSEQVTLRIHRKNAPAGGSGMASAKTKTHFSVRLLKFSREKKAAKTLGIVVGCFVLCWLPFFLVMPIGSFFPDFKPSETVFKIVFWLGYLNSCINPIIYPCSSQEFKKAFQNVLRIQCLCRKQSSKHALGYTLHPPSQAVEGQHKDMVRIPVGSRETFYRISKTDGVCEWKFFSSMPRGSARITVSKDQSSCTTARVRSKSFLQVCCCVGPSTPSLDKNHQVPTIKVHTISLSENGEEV
EXPERIMENTAL DETAILS: Efficacy as % of the maximal effect observed for nonselective agonist phenylephrine in rat-1 fibroblasts expressing human Alpha-1 adrenergic receptor
Assay type: functional
Returns one of Condition met or Condition not met; Condition met when Max is >= 90%.

Query :: # bool: Max of CCCS(=O)(=O)c1ccccc1NCC1=NCCN1 >= 90%
Result :: Condition met

Query :: # bool: Max of CSc1cc(F)ccc1NCC1=NCCN1 >= 90%
Result :: Condition met

Query :: # bool: Max of CS(=O)(=O)c1cc(F)ccc1NCC1=NCCN1 >= 90%
Result :: Condition not met

Query :: # bool: Max of CS(=O)(=O)c1cccc(F)c1NCC1=NCCN1 >= 90%
Result :: Condition met
